What follows is literature data on IC50 for Protein deacetylase HDAC6 (Homo sapiens).
measurement label: IC50 (nM)

Examples with answers:
{"molecule": "O=C(N[C@@H]1CCCC[C@H]1N1Cc2ccc(-c3nnc(C(F)F)o3)cc2S1(=O)=O)C(F)(F)C(F)(F)F", "system under test": "Protein deacetylase HDAC6 (Homo sapiens)", "IC50, nM": 46.1}
{"molecule": "O=C(NO)c1ccc2cn(Cc3cccc(OC(F)(F)F)c3)nc2c1", "system under test": "Protein deacetylase HDAC6 (Homo sapiens)", "IC50, nM": 4.4}
{"molecule": "Cc1ccc(S(=O)(=O)N2CC(O)CCC2C(=O)OCc2ccc(C(=O)OCc3ccccc3Cl)cn2)cc1 (stereo not shown)", "system under test": "Protein deacetylase HDAC6 (Homo sapiens)", "IC50, nM": 19.4}

a. O=C(N[C@@H]1CCCC[C@H]1N1Cc2ccc(-c3nnc(C(F)F)o3)cc2S1(=O)=O)C(F)(F)F
b. O=S1(=O)c2cc(-c3nnc(C(F)F)o3)ccc2CN1[C@@H]1COCC[C@H]1O
In: When the recorded IC50 values are compared, which is smaller: that of a or that of b ? # respond with the chosen item's label
Out: a
(a: 48.4 nM, b: 820 nM)

A. O=C(NO)c1ccc2cn(Cc3ccccc3)nc2c1
B. O=C(NO)c1ccc2cn(CCc3ccc(F)cc3)nc2c1
In: Param metric = IC50; output whichever of A , B has the minimum value. Response format: the label of the selected entry.
Out: A
(A: 2.6 nM, B: 6.7 nM)

---

Record: compiled IC50 on Protein deacetylase HDAC6 (Homo sapiens, UniProt Q9UBN7) from multiple reports.
measurement label: IC50 (nM)

{"compound": "COc1cccc(COC(=O)c2cccc(CCOC(=O)C3CCC(O)CN3C(=O)C(=O)C3=Cc4ccccc4C3)c2)c1 (stereo not drawn)", "IC50, nM": 0.58}
{"compound": "COc1cccc(Cn2cc3ccc(C(=O)NO)cc3n2)c1", "IC50, nM": 1.8}
{"compound": "O=S(=O)(N[C@@H]1CCCC[C@H]1N1Cc2ccc(-c3nnc(C(F)F)o3)cc2S1(=O)=O)C1CC1", "IC50, nM": 154}
{"compound": "O=C(OCC1CCCCC1)c1ccc(COC(=O)C2COC(O)CN2C(=O)C(=O)c2cc3ccccc3[nH]2)nc1 (stereo not drawn)", "IC50, nM": 0.63}

a. O=C(C(=O)N1CC(O)OCC1C(=O)OCCC1CCCCC1C(=O)OCc1ccc(Cl)cc1)c1ccccn1 (stereo not drawn)
b. O=C(NO)c1ccc2cn(Cc3cccc(F)c3)nc2c1
In: Smaller IC50 value? Options are a and b When you have decided, please share the label of that item.
Out: a
(a: 0.85 nM, b: 1.8 nM)
